These data points were gathered from patent US20260109776A1.

targetOfAssay: T1, human TNFR2 (human, UniProt P20333 23-461)
T1 construct: whole, on cells
T1 sequence (looked up): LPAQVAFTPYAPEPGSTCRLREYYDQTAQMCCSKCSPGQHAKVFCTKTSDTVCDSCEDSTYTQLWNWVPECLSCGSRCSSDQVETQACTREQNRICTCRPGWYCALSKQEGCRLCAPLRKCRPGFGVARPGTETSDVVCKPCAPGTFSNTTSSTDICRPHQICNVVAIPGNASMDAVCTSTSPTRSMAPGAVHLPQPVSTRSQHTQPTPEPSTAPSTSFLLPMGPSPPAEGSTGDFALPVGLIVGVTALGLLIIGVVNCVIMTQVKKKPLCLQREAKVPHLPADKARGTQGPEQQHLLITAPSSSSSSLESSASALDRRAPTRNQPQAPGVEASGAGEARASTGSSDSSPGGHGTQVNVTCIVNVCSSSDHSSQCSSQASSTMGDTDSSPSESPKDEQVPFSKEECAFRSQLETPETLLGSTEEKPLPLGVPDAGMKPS
testMethodNotes: flow cytometry, HEK293 transfectants
Protocol: The binding affinity of anti-human CD40 antibodies to human and cynomolgus monkey CD40 was measured by Octet assay (Table 3), quantifying association rate (Kon), disassociation rate (Kdis), and equilibrium binding constant (KD). Cross-reactivity of anti-CD40 antibodies to related TNF receptor superfamily (TNFRSF) members was evaluated by expressing human TNFR1, TNFR2, TNFR10, or TNFR14 on HEK293 cells by transient transfection of expression vectors encoding these genes. […]

{"binder": "37A6 (antibody, IgG4, V domains shown, also called 4865-1) VH: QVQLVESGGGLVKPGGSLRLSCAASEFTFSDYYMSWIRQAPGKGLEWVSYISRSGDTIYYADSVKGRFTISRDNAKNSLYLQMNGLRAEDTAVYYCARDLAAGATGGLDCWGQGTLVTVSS VL: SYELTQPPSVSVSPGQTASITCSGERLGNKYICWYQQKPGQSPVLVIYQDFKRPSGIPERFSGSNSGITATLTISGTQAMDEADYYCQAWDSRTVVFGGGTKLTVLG", "binding result": "no binding"}
{"binder": "33H9 (antibody, IgG4, V domains shown, also called 4897-1) VH: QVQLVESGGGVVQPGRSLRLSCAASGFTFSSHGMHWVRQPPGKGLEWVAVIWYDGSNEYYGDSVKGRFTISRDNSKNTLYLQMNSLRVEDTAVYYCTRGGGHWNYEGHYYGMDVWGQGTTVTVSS VL: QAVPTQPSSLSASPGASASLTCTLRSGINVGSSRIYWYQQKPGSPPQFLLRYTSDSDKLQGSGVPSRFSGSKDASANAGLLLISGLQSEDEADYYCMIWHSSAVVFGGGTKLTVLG", "binding result": "no binding"}
